Each entry below carries its recorded pIC50.
Biological target: APOL1 G1 Protein (Homo sapiens, UniProt O14791, I384M/S342G)
Sequence (O14791 28-398 S342G/I384M): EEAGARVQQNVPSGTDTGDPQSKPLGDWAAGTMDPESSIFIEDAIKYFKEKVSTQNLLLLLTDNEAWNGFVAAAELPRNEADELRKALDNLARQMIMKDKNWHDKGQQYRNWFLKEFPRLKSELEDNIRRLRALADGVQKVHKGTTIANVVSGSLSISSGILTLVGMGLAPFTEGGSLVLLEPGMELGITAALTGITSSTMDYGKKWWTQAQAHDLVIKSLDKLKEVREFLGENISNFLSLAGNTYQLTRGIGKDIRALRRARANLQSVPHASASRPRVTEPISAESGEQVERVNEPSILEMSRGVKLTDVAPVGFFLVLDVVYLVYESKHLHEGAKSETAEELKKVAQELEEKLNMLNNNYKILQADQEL
Assay: Trypanosoma brucei brucei lysis assay using APOL1 recombinant protein (AlamarBlue viability)
Format: cell-based
Settings: Trypanosoma brucei brucei lysis, recombinant APOL1, AlamarBlue; read-out: Trypanosoma Assay (IC50)
pIC50: −log10 of the molar value.

Here is how some compounds turned out for pIC50.
compound	pIC50
O=C1CC(NC(=O)[C@H]2C[C@H](c3c(-c4ccc(F)cc4)[nH]c4c(F)cc(F)cc43)C2)CN1 (mixture of isomers)	< 6.00
COC1CC1NC(=O)[C@H]1C[C@H](c2c(-c3ccc(F)cc3)[nH]c3c(F)cc(F)cc32)C1 (stereo partly drawn)	< 6.00
O=C([C@H]1C[C@H](c2c(-c3ccc(F)cc3)[nH]c3c(F)cc(F)cc32)C1)N1CC(OCC2CCCO2)C1 (stereo partly drawn)	< 6.00
CC1(C)CN(C(=O)[C@H]2C[C@H](c3c(-c4ccc(F)cc4)[nH]c4c(F)cc(F)cc43)C2)CCC1O (stereo partly drawn)	< 6.00
O=C(NCc1cnco1)[C@H]1C[C@H](c2c(-c3ccc(F)cc3)[nH]c3c(F)cc(F)cc32)C1	> 6.60

Sure, the documented pIC50 for CN(C)C[C@@H]1CCN(C(=O)[C@H]2C[C@H](c3c(-c4ccc(F)cc4)[nH]c4c(F)cc(F)cc43)C2)C[C@H]1O is 6.00 to 6.60

Sure, the documented pIC50 for CN(CC(N)=O)C(=O)[C@H]1C[C@H](c2c(-c3ccc(F)cc3)[nH]c3c(F)cc(F)cc32)C1 is 6.00 to 6.60

Sure, the documented pIC50 for O=C([C@H]1C[C@H](c2c(-c3ccc(F)cc3)[nH]c3c(F)cc(F)cc32)C1)N1CCC[C@H]1CO is 6.00 to 6.60

Sure, the documented pIC50 for O=C(NC(CO)CF)[C@H]1C[C@H](c2c(-c3ccc(F)cc3)[nH]c3c(F)cc(F)cc32)C1 (stereo partly drawn) is > 6.60

Sure, the documented pIC50 for Cc1noc(CNC(=O)[C@H]2C[C@H](c3c(-c4ccc(F)cc4)[nH]c4c(F)cc(F)cc43)C2)n1 is > 6.60

Sure, the documented pIC50 for CC(C)N1CCN(C(=O)[C@H]2C[C@H](c3c(-c4ccc(F)cc4)[nH]c4c(F)cc(F)cc43)C2)CC1=O is < 6.00

Sure, the documented pIC50 for NC(=O)[C@H]1CCCN1C(=O)[C@H]1C[C@H](c2c(-c3ccc(F)cc3)[nH]c3c(F)cc(F)cc32)C1 is > 6.60

Sure, the documented pIC50 for CN(CC(O)CO)C(=O)[C@H]1C[C@H](c2c(-c3ccc(F)cc3)[nH]c3c(F)cc(F)cc32)C1 (stereo partly drawn) is 6.00 to 6.60

Sure, the documented pIC50 for O=C(N[C@@H]1CCOC1)[C@H]1C[C@H](c2c(-c3ccc(F)cc3)[nH]c3c(F)cc(F)cc32)C1 is 6.00 to 6.60

Sure, the documented pIC50 for O=C(CNC(=O)[C@H]1C[C@H](c2c(-c3ccc(F)cc3)[nH]c3c(F)cc(F)cc32)C1)NC1CC1 is < 6.00

Sure, the documented pIC50 for CCC(O)(CCCO)CNC(=O)[C@H]1C[C@H](c2c(-c3ccc(F)cc3)[nH]c3c(F)cc(F)cc32)C1 (stereo partly drawn) is < 6.00

Sure, the documented pIC50 for CC1(NC(=O)[C@H]2C[C@H](c3c(-c4ccc(F)cc4)[nH]c4c(F)cc(F)cc43)C2)CCNC1=O (mixture of isomers) is > 6.60

Sure, the documented pIC50 for O=C([C@H]1C[C@H](c2c(-c3ccc(F)cc3)[nH]c3c(F)cc(F)cc32)C1)N1CCCC1CCO (stereo partly drawn) is 6.00 to 6.60

Sure, the documented pIC50 for O=C(N[C@@H](CO)C(F)(F)F)[C@H]1C[C@H](c2c(-c3ccc(F)cc3)[nH]c3c(F)cc(F)cc32)C1 is > 6.60

Sure, the documented pIC50 for C[C@H](O)CNC(=O)[C@H]1C[C@H](c2c(-c3ccc(F)cc3)[nH]c3c(F)cc(F)cc32)C1 is 6.00 to 6.60

Sure, the documented pIC50 for O=C([C@H]1C[C@H](c2c(-c3ccc(F)cc3)[nH]c3c(F)cc(F)cc32)C1)N1CCOC[C@H]1CO is 6.00 to 6.60

Sure, the documented pIC50 for Cc1nnc(CNC(=O)[C@H]2C[C@H](c3c(-c4ccc(F)cc4)[nH]c4c(F)cc(F)cc43)C2)o1 is > 6.60

Sure, the documented pIC50 for CC(CO)N(C)C(=O)[C@H]1C[C@H](c2c(-c3ccc(F)cc3)[nH]c3c(F)cc(F)cc32)C1 (mixture of isomers) is 6.00 to 6.60

Sure, the documented pIC50 for CC(O)CN(CCO)C(=O)[C@H]1C[C@H](c2c(-c3ccc(F)cc3)[nH]c3c(F)cc(F)cc32)C1 (mixture of isomers) is > 6.60

Sure, the documented pIC50 for CN(C(=O)[C@H]1C[C@H](c2c(-c3ccc(F)cc3)[nH]c3c(F)cc(F)cc32)C1)C1COCC1O (stereo partly drawn) is < 6.00

Sure, the documented pIC50 for NCC(O)CNC(=O)[C@H]1C[C@H](c2c(-c3ccc(F)cc3)[nH]c3c(F)cc(F)cc32)C1 (stereo partly drawn) is 6.00 to 6.60

Sure, the documented pIC50 for O=C(NCC1(O)CCC1)[C@H]1C[C@H](c2c(-c3ccc(F)cc3)[nH]c3c(F)cc(F)cc32)C1 is < 6.00
